biological target: Substance-P receptor (Homo sapiens, UniProt P25103); test: Inhibition of substance P binding to Tachykinin receptor 1 in Chinese hamster ovary cells; type: cell-based
Sequence (P25103 whole entry): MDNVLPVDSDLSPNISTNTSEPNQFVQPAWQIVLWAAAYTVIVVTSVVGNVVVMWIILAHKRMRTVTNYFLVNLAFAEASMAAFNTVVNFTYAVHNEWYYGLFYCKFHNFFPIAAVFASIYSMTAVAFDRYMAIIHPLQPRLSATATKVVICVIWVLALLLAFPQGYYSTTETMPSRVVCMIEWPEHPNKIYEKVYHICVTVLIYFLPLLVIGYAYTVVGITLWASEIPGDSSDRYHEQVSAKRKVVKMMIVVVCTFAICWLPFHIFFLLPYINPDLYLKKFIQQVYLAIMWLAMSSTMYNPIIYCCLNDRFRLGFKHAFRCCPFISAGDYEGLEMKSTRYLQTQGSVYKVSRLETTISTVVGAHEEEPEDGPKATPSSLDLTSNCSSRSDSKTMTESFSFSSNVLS

compound: NC(COCc1ccccc1)C(c1ccccc1)c1ccccc1 (stereo not drawn)
IC50: 400 nM
--
compound: FC(F)(F)c1cc(COCC2(c3ccccc3)CCNCC2)cc(C(F)(F)F)c1
IC50: 1 nM
--
compound: NC(=O)CNC(COCc1cc(C(F)(F)F)cc(C(F)(F)F)c1)C(c1ccccc1)c1ccccc1 (stereo in doubt; 5)
IC50: 0.53 nM
--
compound: COc1ccc(-n2cnnn2)cc1CN[C@H]1CCCN[C@H]1c1ccccc1
IC50: 0.06 nM
--
compound: N[C@H](Cc1c[nH]c2ccccc12)C(=O)OCc1ccccc1
IC50: > 10000 nM
--
compound: O=C(CSc1nnc(-c2ccncc2)n1-c1ccccc1)Nc1cccc(Cl)c1
IC50: 250 nM
--
compound: CC(=O)NC(Cc1c[nH]c2ccccc12)C(=O)OCc1cc(C)cc(C)c1 (stereo not drawn)
IC50: 67 nM
--
compound: Cc1cc(C)cc(COC(=O)[C@H](N)Cc2c[nH]c3ccccc23)c1
IC50: 1530 nM

* * *

biological target: Substance-P receptor (Homo sapiens, UniProt P25103); assay: Inhibition of substance P binding to Tachykinin receptor 1 in Chinese hamster ovary cells; format: cell-based; settings: ovary
pIC50: −log10 of the molar value.

compound: NC(=O)CNC(COCc1cc(C(F)(F)F)cc(C(F)(F)F)c1)C(c1ccccc1)c1ccccc1 (stereo in doubt; 16)
pIC50: 9.28
